# targetSystem: T1, human BR3 extracellular domain (human, UniProt Q96RJ3 1-61)
# T1 construct: biotinylated where used as tracer; also called hBR3-ECD; BR3-ECD
# methodNotes: phage competition ELISA
endpoint: pIC50
Notebook: values listed as pIC50 are -log10 of the concentration (mol/L).

Would you mind telling me what pIC50 value was observed for V3-46s-40 phage clone (Fab, V domains shown) VH: EVQLVESGGGLVQPGGSLRLSCAASGFTISSSSIHWVRQAPGKGLEWVAWVLPSVGFTDYADSVKGRFTISADTSKNTAYLQMNSLRAEDTAVYYCARRVCYNRLGVCAGGMDYWGQGTLVTVSS VL: DIQMTQSPSSLSASVGDRVTITCRASEEIATSVAWYQQKPGKAPKLLIFSASYLYSGVPSRFSGSGSGTDFTLTISSLQPEDFATYYCQQSQVSPPTFGQGTKVEIK ?
9.79

Do the same for V3-46s-37 phage clone (Fab, V domains shown) VH: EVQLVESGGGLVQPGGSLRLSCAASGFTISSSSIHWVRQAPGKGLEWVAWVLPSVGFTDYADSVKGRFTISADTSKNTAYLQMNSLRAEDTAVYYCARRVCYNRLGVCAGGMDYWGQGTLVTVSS VL: DIQMTQSPSSLSASVGDRVTITCRASQDVATAVAWYQQKPGKAPKLLIFAASFLYSGVPSRFSGSGSGTDFTLTISSLQPEDFATYYCQQSQISPPTFGQGTKVEIK please
9.88
